// provenance: patent US4450115A

The reader will find reported LD50 values listed item by item below.
# Test: in vivo
# Condition Info: mouse, Table 5, oral, male dd-strain mice

// below: answered compounds
CC(=O)Nc1ccc(OCC(O)CNCc2ccc3c(c2)OCCO3)cc1 (centres unmarked) : > 1000 mg/kg
N#Cc1ccccc1OCC(O)CNCC1COc2ccccc2O1 (centres unmarked) : 420 mg/kg
COc1ccc(C(O)C(C)NCC2COc3ccccc3O2)cc1C (centres unmarked) : 450 mg/kg
NC(=O)Cc1ccc(OCC(O)CNCc2ccc3c(c2)OCCO3)cc1 (centres unmarked) : > 1000 mg/kg
CCOC(=O)Cc1ccc(OCC(O)CNCC2COc3ccccc3O2)cc1 (centres unmarked) : > 1000 mg/kg

For record CCCC(=O)Nc1ccc(OCC(O)CNCC2COc3ccccc3O2)c(C(C)=O)c1 (centres unmarked) the listed LD50 is > 1000 mg/kg

For record CC(=O)Nc1ccc(OCC(O)CNCC2COc3ccccc3O2)cc1 (centres unmarked) the listed LD50 is 500 to 1000 mg/kg

For record OC(CNCC1COc2ccccc2O1)COc1cccc2ccccc12 (centres unmarked) the listed LD50 is > 1000 mg/kg

For record O=C1CCCc2c(OCC(O)CNCc3ccc4c(c3)OCCO4)cccc21 (centres unmarked) the listed LD50 is > 1000 mg/kg

For record Cc1cccc(OCC(O)CNCC2COc3ccccc3O2)c1C (centres unmarked) the listed LD50 is > 1000 mg/kg

For record Cc1cccc(OCC(O)CNCC2COc3ccccc3O2)c1 (centres unmarked) the listed LD50 is 1000 to 2000 mg/kg
